Data origin, for the record: paper PMC11897156

assaySystem: T1, Gremlin-1 (recombinant) (UniProt O60565 25-184)
T1 sequence: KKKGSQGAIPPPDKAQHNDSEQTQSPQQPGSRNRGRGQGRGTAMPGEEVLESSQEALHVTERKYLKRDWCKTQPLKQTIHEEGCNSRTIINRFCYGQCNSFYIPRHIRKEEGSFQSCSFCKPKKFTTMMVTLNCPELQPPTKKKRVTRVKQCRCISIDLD
runDescription: SPR; GREM1 immobilized, aptamer 0.062-1 uM, 25 C; kon 3.39e4 M-1 s-1, koff 1.58e-3 s-1; Aptamer refolded 85 C 5 min, 4 C 2 min, 37 C 10 min; ELONA: PBS, 3% BSA block, 1 h; pull-down: 10 mM PBS with Ca2+ and Mg2+, room temperature; SPR at 25 C (buffer not in material); cell binding: serum-free medium, 37 C, 30 min
experimentalSetup: protein: commercial; chain copies: 2; label: biotin (ELONA, pull-down); none stated for SPR; hairpin; predicted stem of 11 bp, 2 internal loops, 1 terminal loop
resultType: pKd
Numbers only, as −log10 of the molar value.

Quick one: pKd for UGUGGCAGUUAAGAAUAGAUCUUCGCUGCGAUU (structured_RNA, lowercase u/c in printed sequence probably 2'-F pyrimidines (not stated in material)) [ex.50.T] ?
7.33
